biological target: T1, recombinant full length human tissue factor pathway inhibitor (TFPI) (human, UniProt P10646 29-304); assay: SPR (Biacore), recombinant human TFPI
T1 construct: also called TFPI1; human TFPI
result-type: Kd

Tell me the measured Kd of HzTFPI4F36 HC-K64Q (antibody, human IgG4 S228P, kappa, name in Kabat numbering, V domains shown, Mutated CDR-grafted heavy chain with wild type CDR-grafted light chain; Kabat numbering) VH: EVQLVESGGGLVKPGGSLRLSCAASGFTFSNYAMSWVRQAPGKGLEWVSTISRSGSYSYYADSVQGRFTISRDNAKNSLYLQMNSLRAEDTAVYYCARLGGYDEGDAMDSWGQGTTVTVSS VL: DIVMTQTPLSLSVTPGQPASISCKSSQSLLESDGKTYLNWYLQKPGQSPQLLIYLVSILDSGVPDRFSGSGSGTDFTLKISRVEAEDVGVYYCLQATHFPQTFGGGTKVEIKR , please. 2.5 nM

Tell me the measured Kd of HzTFPI4F36 HC-S77T (antibody, human IgG4 S228P, kappa, name in Kabat numbering, V domains shown, Mutated CDR-grafted heavy chain with wild type CDR-grafted light chain; Kabat numbering) VH: EVQLVESGGGLVKPGGSLRLSCAASGFTFSNYAMSWVRQAPGKGLEWVSTISRSGSYSYYADSVKGRFTISRDNAKNTLYLQMNSLRAEDTAVYYCARLGGYDEGDAMDSWGQGTTVTVSS VL: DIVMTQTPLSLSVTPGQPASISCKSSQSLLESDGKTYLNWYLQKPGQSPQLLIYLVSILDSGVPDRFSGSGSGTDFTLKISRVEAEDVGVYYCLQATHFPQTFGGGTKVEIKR , please. 1.5 nM

Tell me the measured Kd of HzTFPI4F36 HC-G42E, G44R, S49A CDR2 (antibody, human IgG4 S228P, kappa, name in Kabat numbering, V domains shown, Mutated CDR-grafted heavy chain with wild type CDR-grafted light chain; Kabat numbering) VH: EVQLVESGGGLVKPGGSLRLSCAASGFTFSNYAMSWVRQAPEKRLEWVATISRSGSYSYFPDSVQGRFTISRDNAKNSLYLQMNSLRAEDTAVYYCARLGGYDEGDAMDSWGQGTTVTVSS VL: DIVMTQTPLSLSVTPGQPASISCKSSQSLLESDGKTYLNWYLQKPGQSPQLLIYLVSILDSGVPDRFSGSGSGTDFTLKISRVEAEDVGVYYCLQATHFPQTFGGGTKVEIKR , please. > 0.03 nM

Tell me the measured Kd of HzTFPI4F36 HC-Y59F (antibody, human IgG4 S228P, kappa, name in Kabat numbering, V domains shown, Mutated CDR-grafted heavy chain with wild type CDR-grafted light chain; Kabat numbering) VH: EVQLVESGGGLVKPGGSLRLSCAASGFTFSNYAMSWVRQAPGKGLEWVSTISRSGSYSYFADSVKGRFTISRDNAKNSLYLQMNSLRAEDTAVYYCARLGGYDEGDAMDSWGQGTTVTVSS VL: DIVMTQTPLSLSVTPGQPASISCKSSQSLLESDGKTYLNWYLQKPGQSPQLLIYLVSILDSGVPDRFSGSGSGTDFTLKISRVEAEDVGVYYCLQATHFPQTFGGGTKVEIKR , please. 5.5 nM

Tell me the measured Kd of HzTFPI4F36 HC-FR3, A93T (antibody, human IgG4 S228P, kappa, name in Kabat numbering, V domains shown, Mutated CDR-grafted heavy chain with wild type CDR-grafted light chain; Kabat numbering) VH: EVQLVESGGGLVKPGGSLRLSCAASGFTFSNYAMSWVRQAPGKGLEWVSTISRSGSYSYYADSVKGRFTISRDNAKNSLYLQMSSLRSEDTAMYYCTRLGGYDEGDAMDSWGQGTTVTVSS VL: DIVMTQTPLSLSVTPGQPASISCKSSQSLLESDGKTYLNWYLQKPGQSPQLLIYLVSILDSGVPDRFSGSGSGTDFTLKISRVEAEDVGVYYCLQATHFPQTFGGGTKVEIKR , please. 4.1 nM

Sourced from patent US20110318356A1
